Settings: in n-hexane, 303.15 K
Assay Endpoint: solubility (mole fraction)
// return a plain number; no unit text

Solved entries (count: 4):
Smiles Text: O=C(NC1=NCCC2(CCCCC2)S1)c1ccccc1
solubility (mole fraction): 0.000189

Smiles Text: Cc1ccc(NC2=NCCC3(CCCCC3)S2)cc1
solubility (mole fraction): 0.000379

Smiles Text: Clc1ccc(NC2=NCCC3(CCCCC3)S2)cc1
solubility (mole fraction): 0.000101

Smiles Text: CC(C)c1ccc(NC2=NCCC3(CCCCC3)S2)cc1
solubility (mole fraction): 0.000742

Qu. Would you kindly share the measured solubility (mole fraction) for `FC(F)(F)c1ccc(NC2=NCCC3(CCCCC3)S2)cc1` ?
Ans. 0.000345

Qu. Would you kindly share the measured solubility (mole fraction) for `CCc1ccc(NC2=NCCC3(CCCCC3)S2)cc1` ?
Ans. 0.000508

Qu. Would you kindly share the measured solubility (mole fraction) for `COc1ccc(NC2=NCCC3(CCCCC3)S2)cc1` ?
Ans. 0.000221

Qu. Would you kindly share the measured solubility (mole fraction) for `Brc1ccc(NC2=NCCC3(CCCCC3)S2)cc1` ?
Ans. 4.34e-05

Qu. Would you kindly share the measured solubility (mole fraction) for `Cc1ccc(NC2=NCCC3(CCCCC3)S2)cc1Cl` ?
Ans. 1.48e-05

Qu. Would you kindly share the measured solubility (mole fraction) for `CC(=O)c1ccc(NC2=NCCC3(CCCCC3)S2)cc1` ?
Ans. 2.42e-05

Qu. Would you kindly share the measured solubility (mole fraction) for `c1ccc(NC2=NCCC3(CCCCC3)S2)cc1` ?
Ans. 0.00148
